The origin of these recorded values is patent US8101647B2.

Measured melting point by item
recorded.endpoint: melting point

NC(=O)COc1ccc(CN2C(=O)C3(COc4cc5c(cc43)OCCO5)c3ccccc32)cc1 (centres unmarked) [Example 13.2] | 225 to 227 °C
COCCOc1ccc(CN2C(=O)C3(COc4cc5c(cc43)OCCO5)c3ccccc32)cc1 (centres unmarked) [Example 13.3] | 124 to 125 °C
O=C(O)COc1cccc(CN2C(=O)C3(COc4cc5c(cc43)CCO5)c3ccccc32)c1 (centres unmarked) [Example 15] | 95 to 96 °C
Cl.O=C1N(Cc2ccc(N[C@@H]3CCNC3)cc2)c2ccccc2C12COc1cc3c(cc12)OCO3 (some centres unmarked) | 190 to 195 °C
O=C1N(C[C@H]2CCCO2)c2ccccc2C12COc1cc3c(cc12)C(=NO)CO3 (some centres unmarked) [Example 24] | 82 to 100 °C
NC(=O)COc1ccc(CN2C(=O)C3(COc4cc5c(cc43)CCO5)c3ccccc32)cc1 (centres unmarked) [Example 13.1] | 215 to 216 °C
O=C1N(Cc2ccc(N[C@@H]3CCNC3)cc2)c2ccccc2C12COc1cc3c(cc12)OCO3 (some centres unmarked) [Example 6] | 118 to 121 °C
N/C(CN1C(=O)C2(COc3cc4c(cc32)OCO4)c2ccccc21)=N\O (centres unmarked) [Example 25] | 235 to 238 °C
